Tested on: HL-60
EXPERIMENT: cell viability (% survival relative to DMSO control); higher = less cytotoxic
APPLIED_CONDITIONS: 0.001 µM; 72 h; co-treatment: AZD3965 100 nM
The entries below come with measured cell viability values attached.

COMPOUND_SMILES	READOUT_UNIT	cell viability
O=C(Nc1ccccc1)c1cc([N+](=O)[O-])ccc1Cl	%	104
Cc1coc2c1C(=O)C(=O)c1c-2ccc2c(C)cccc12	%	100
C[C@H]1O[C@@H](O[C@H]2[C@@H](O)C[C@H](O[C@H]3[C@@H](O)C[C@H](O[C@H]4CC[C@@]5(C)[C@H](CC[C@@H]6[C@@H]5C[C@@H](O)[C@]5(C)[C@@H](C7=CC(=O)OC7)CC[C@]65O)C4)O[C@@H]3C)O[C@@H]2C)C[C@H](O)[C@@H]1O	%	75.4
C1CCc2nnc(C34CC5CC(CC(C5)C3)C4)n2CC1	%	103
O=C(COc1ccc(C(=O)c2ccccc2)cc1)NC1CCN(Cc2ccccc2)CC1	%	101
N[C@](CCCCB(O)O)(CCN1CCCCC1)C(=O)O	%	94.6

###

System: KU-812
EXPERIMENT: cell viability (% survival relative to DMSO control, bortezomib = 0%); higher = less cytotoxic
APPLIED_CONDITIONS: 100 nM; 72 h
PROPERTY: cell viability (%)

In [3]: df
Out[3]:
                                   compound  value_reported
0               O=c1c2ccccc2[se]n1-c1ccccc1            89.5
1  CC(C)C[C@H](NC(=O)[C@@H](O)[C@H](N)Cc1ccccc1)C(=O)O            97.8
2        N[C@](CCCCB(O)O)(CCN1CCCCC1)C(=O)O            85.6
3  NC(=O)c1ncn([C@@H]2O[C@H](CO)[C@@H](O)[C@H]2O)n1            91.3
4  CCN(CC)CCN(Cc1ccc(-c2ccc(C(F)(F)F)cc2)cc1)C(=O)Cn1c(SCc2ccc(F)cc2)nc(=O)c2c1CCC2             100
5              Oc1cc(Cl)ccc1Oc1ccc(Cl)cc1Cl            99.2
6           O=C(O)C(S)=Cc1c[nH]c2ccc(F)cc12             101
7                         Sc1ncnc2nc[nH]c12              93
8  CC(Cc1ccc(O)c(O)c1)C(C)Cc1ccc(O)c(O)c1 (centres undefined)             102

###

Test system: K-562
EXPERIMENT: cell viability (% survival relative to DMSO control, bortezomib = 0%); higher = less cytotoxic
APPLIED_CONDITIONS: 10 nM; 72 h
PROPERTY: cell viability (%)

                                   molecule        property  value_reported
0  O=C(O)CC[C@H](NC(=O)c1ccc([N+](=O)[O-])cc1)C(=O)O [(S)-2-(4-Nitrobenzamido)pentanedioic acid]  cell viability            91.8
1  O=C1Oc2ccccc2C(=O)C1CC1C(=O)Oc2ccccc2C1=O (centres undefined)  cell viability             106
2         C=CCc1ccc2c(c1O)C(=O)c1ccccc1C2=O  cell viability            95.2
3          [N-]=[N+]=CC(=O)CC[C@H](N)C(=O)O  cell viability            99.6
4  CC(Cc1ccc(O)c(O)c1)C(C)Cc1ccc(O)c(O)c1 (centres undefined)  cell viability             109
5  C[C@]12O[C@H](C[C@]1(O)CO)n1c3ccccc3c3c4c(c5c6ccccc6n2c5c31)CNC4=O  cell viability            94.3
6  OCCN1CCN(CCCN2c3ccccc3Sc3ccc(Cl)cc32)CC1  cell viability            97.3
7  Nc1ccn([C@@H]2O[C@H](CO)[C@@H](O)[C@@H]2O)c(=O)n1  cell viability              70
8                c1ccc2c(c1)OCC(=C1NCCN1)O2  cell viability            98.1

The reported measurements were obtained from the supplement of paper PMC8671470.
